# reported FLG 10 μM; entries follow
- Tested on: filaggrin (FLG)
- test.summary: 3D micro-epidermis model (EpiScreen): filaggrin immunostaining;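 further: human primary epidermal keratinocytes differentiated in high calcium into 3D micro-epidermises, compound-treated for three days, imaged by confocal high-content microscopy, filaggrin staining intensity quantified within actin-segmented structures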
- Format: cell-based, human
- measurement.parameters: 10 μM; supplementary data; two runs; Tox = toxic
reported.property: FLG 10 μM (%)

>>> value_observed("Cc1ccnc2c1NC(=O)c1cccnc1N2C1CC1")
2
>>> value_observed("CCN(CC)CCNC(=O)c1c(C)[nH]c(/C=C2\\C(=O)Nc3ccc(F)cc32)c1C")
101
>>> value_observed("CC#CC(=O)N1CCC[C@H]1c1nc(-c2ccc(C(=O)Nc3ccccn3)cc2)c2c(N)nccn12")
33
>>> value_observed("CCCS(=O)(=O)Nc1ccc(F)c(C(=O)c2c[nH]c3ncc(-c4ccc(Cl)cc4)cc23)c1F")
126
>>> value_observed("CNC(=O)c1ccc(N2C(=S)N(c3ccc(C#N)c(C(F)(F)F)c3)C(=O)C2(C)C)cc1F [Enzalutamide]")
"−1"

---

- Test system: Human epidermal keratinocytes cells (HPEKs), 3D micro-epidermis
- test.summary: 3D micro-epidermis model (EpiScreen): epidermis size, toxicity, dose response, classification
- Format: cell-based
- measurement.parameters: 1 μM, micro-epidermis
reported.property: Toxicity at 1 μM

>>> value_observed("CN(C)C/C=C/C(=O)Nc1cc2c(Nc3ccc(F)c(Cl)c3)ncnc2cc1O[C@H]1CCOC1 [Afatinib]")
"Yes"
>>> value_observed("CCN(CC)CCNC(=O)c1c(C)[nH]c(/C=C2\\C(=O)Nc3ccc(F)cc32)c1C [Sunitinib]")
"No"
>>> value_observed("COc1cc2ncnc(Nc3ccc(F)c(Cl)c3)c2cc1NC(=O)/C=C/CN1CCCCC1 [Dacomitinib]")
"Yes"
>>> value_observed("CNC(=O)c1cc(Oc2ccc(NC(=O)Nc3ccc(Cl)c(C(F)(F)F)c3)cc2)ccn1 [Sorafenib]")
"Yes"

---

- Test system: Human epidermal keratinocytes cells (HPEKs), 3D micro-epidermis
- test.summary: 3D micro-epidermis model (EpiScreen): epidermis size, toxicity, dose response, classification
- Format: cell-based
- measurement.parameters: supplementary table; per run (1st or 2nd Run); markers in brackets
reported.property: Dose/response

>>> value_observed("C#Cc1cccc(Nc2ncnc3cc(OCCOC)c(OCCOC)cc23)c1")
"No"
>>> value_observed("CNC(=O)c1cc(Oc2ccc(NC(=O)Nc3ccc(Cl)c(C(F)(F)F)c3)cc2)ccn1")
"No"
>>> value_observed("CN(C)C/C=C/C(=O)Nc1cc2c(Nc3ccc(F)c(Cl)c3)ncnc2cc1O[C@H]1CCOC1")
"Yes (DSG, IVL,"
>>> value_observed("COc1cc2ncnc(Nc3ccc(F)c(Cl)c3)c2cc1NC(=O)/C=C/CN1CCCCC1")
"Yes (DSG, IVL,"

---

- Test system: Human epidermal keratinocytes cells (HPEKs), 3D micro-epidermis
- test.summary: 3D micro-epidermis model (EpiScreen): epidermis size, toxicity, dose response, classification;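 further: keratinocytes on micropatterned discs in high-calcium medium, drug exposure for three days, then fixation and confocal high-content imaging of actin, nuclei and a marker, vehicle DMSO-matched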
- Type: cell-based
- measurement.parameters: 3, 10, 30 nM
reported.property: effect on desmoglein-1, involucrin and filaggrin expression (dose dependence)

>>> value_observed("CS(=O)(=O)CCNCc1ccc(-c2ccc3ncnc(Nc4ccc(OCc5cccc(F)c5)c(Cl)c4)c3c2)o1")
"dose-dependent manner"
>>> value_observed("COc1cc2ncnc(Nc3ccc(F)c(Cl)c3)c2cc1NC(=O)/C=C/CN1CCCCC1")
"dose-dependent manner"
>>> value_observed("C#Cc1cccc(Nc2ncnc3cc(OCCOC)c(OCCOC)cc23)c1")
"did not affect"
>>> value_observed("C=CC(=O)Nc1cc(Nc2nccc(-c3cn(C)c4ccccc34)n2)c(OC)cc1N(C)CCN(C)C")
"did not affect"

---

Entries and their activation at 0.1 µM
- Tested on: desmoglein-1 (DSG1)
- test.summary: 3D micro-epidermis model (EpiScreen): desmoglein-1 immunostaining
- Format: cell-based, human
- measurement.parameters: Homo sapiens, 72 h, 100 nM; supplementary data; Tox = toxic; read-out: DSG 100 nM
reported.property: activation at 0.1 µM

>>> value_observed("C#Cc1cccc(Nc2ncnc3cc(OCCOC)c(OCCOC)cc23)c1")
"36%"
>>> value_observed("CNC(=O)c1ccc(N2C(=S)N(c3ccc(C#N)c(C(F)(F)F)c3)C(=O)C2(C)C)cc1F [Enzalutamide]")
"-6%"
>>> value_observed("CC#CC(=O)N1CCC[C@H]1c1nc(-c2ccc(C(=O)Nc3ccccn3)cc2)c2c(N)nccn12")
"-26%"
>>> value_observed("COc1cc2c(Nc3ccc(Br)cc3F)ncnc2cc1OCC1CCN(C)CC1")
"5%"

---

- Test system: involucrin (IVL)
- test.summary: 3D micro-epidermis model (EpiScreen): involucrin immunostaining
- Assay type: cell-based, human
- measurement.parameters: Homo sapiens, 72 h, 100 nM; supplementary data; two runs; Tox = toxic
- Experimental: To assess the effects of such therapy molecules on the epidermis, keratinocytes were grown in the presence of kinase inhibitors during 3 days with high calcium concentration to induce keratinocyte differentiation and generate a 3D-stratified differentiated epidermis. […] The actin network of each micro-epidermis is analyzed in each z-plane in order to determine the average 3D structure edges. […]
Known activation at 0.1 µM of a selection of compounds
reported.property: activation at 0.1 µM (%)

>>> value_observed("COc1cc2ncnc(Nc3ccc(F)c(Cl)c3)c2cc1OCCCN1CCOCC1")
29
>>> value_observed("CS(=O)(=O)CCNCc1ccc(-c2ccc3ncnc(Nc4ccc(OCc5cccc(F)c5)c(Cl)c4)c3c2)o1")
48
>>> value_observed("CCCS(=O)(=O)Nc1ccc(F)c(C(=O)c2c[nH]c3ncc(-c4ccc(Cl)cc4)cc23)c1F")
-11
>>> value_observed("CN(C)C/C=C/C(=O)Nc1cc2c(Nc3ccc(F)c(Cl)c3)ncnc2cc1O[C@H]1CCOC1")
16
>>> value_observed("CC#CC(=O)N1CCC[C@H]1c1nc(-c2ccc(C(=O)Nc3ccccn3)cc2)c2c(N)nccn12")
11
>>> value_observed("COc1cc2c(Nc3ccc(Br)cc3F)ncnc2cc1OCC1CCN(C)CC1")
25
>>> value_observed("C=CC(=O)Nc1cc(Nc2nccc(-c3cn(C)c4ccccc34)n2)c(OC)cc1N(C)CCN(C)C")
20
>>> value_observed("CNC(=O)c1ccc(N2C(=S)N(c3ccc(C#N)c(C(F)(F)F)c3)C(=O)C2(C)C)cc1F [Enzalutamide]")
9.3
>>> value_observed("C#Cc1cccc(Nc2ncnc3cc(OCCOC)c(OCCOC)cc23)c1")
35
>>> value_observed("Cc1ccnc2c1NC(=O)c1cccnc1N2C1CC1")
17

---

- Test system: desmoglein-1 (DSG1)
- test.summary: 3D micro-epidermis model (EpiScreen): desmoglein-1 immunostaining
- Format: cell-based, human
- measurement.parameters: 3 nM; supplementary data
Listing: DSG 3 nM of selected compounds
reported.property: DSG 3 nM (%)

>>> value_observed("CS(=O)(=O)CCNCc1ccc(-c2ccc3ncnc(Nc4ccc(OCc5cccc(F)c5)c(Cl)c4)c3c2)o1 [Lapatinib]")
"−6.20"
>>> value_observed("C=CC(=O)Nc1cc(Nc2nccc(-c3cn(C)c4ccccc34)n2)c(OC)cc1N(C)CCN(C)C [Osimertinib]")
"−3"
>>> value_observed("C#Cc1cccc(Nc2ncnc3cc(OCCOC)c(OCCOC)cc23)c1 [Erlotinib]")
"−7"
>>> value_observed("COc1cc2ncnc(Nc3ccc(F)c(Cl)c3)c2cc1OCCCN1CCOCC1 [Gefitinib]")
"−8"
>>> value_observed("COc1cc2ncnc(Nc3ccc(F)c(Cl)c3)c2cc1NC(=O)/C=C/CN1CCCCC1 [Dacomitinib]")
10.00
>>> value_observed("CN(C)C/C=C/C(=O)Nc1cc2c(Nc3ccc(F)c(Cl)c3)ncnc2cc1O[C@H]1CCOC1 [Afatinib]")
38
